Data credit: patent US12624034B2

TARGET OR TEST SYSTEM: AKT2 (Homo sapiens, UniProt P31751)
Construct: expressed in transfected cells; host or cells: HEK293
Sequence (P31751 whole entry): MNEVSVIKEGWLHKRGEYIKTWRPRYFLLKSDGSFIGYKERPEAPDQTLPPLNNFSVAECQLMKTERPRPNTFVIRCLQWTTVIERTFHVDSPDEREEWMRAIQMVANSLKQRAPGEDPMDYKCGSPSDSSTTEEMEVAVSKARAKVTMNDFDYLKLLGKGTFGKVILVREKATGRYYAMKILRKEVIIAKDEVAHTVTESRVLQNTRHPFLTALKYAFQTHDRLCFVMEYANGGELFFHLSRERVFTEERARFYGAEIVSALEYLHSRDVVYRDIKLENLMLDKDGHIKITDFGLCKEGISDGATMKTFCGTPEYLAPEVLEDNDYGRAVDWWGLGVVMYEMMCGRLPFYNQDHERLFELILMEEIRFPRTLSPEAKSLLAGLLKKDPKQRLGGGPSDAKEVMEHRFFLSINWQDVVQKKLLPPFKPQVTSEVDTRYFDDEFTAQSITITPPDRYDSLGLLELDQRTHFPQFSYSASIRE
ASSAY INFO: Live cell AKT2 target engagement by NanoBRET competitive probe displacement in HEK293 cells
Type: binding
APPLIED CONDITIONS: NanoBRET live cell target engagement, HEK293 cells, 2 h at 37° C.; read-out: AKT2 IC50
Parameter pIC50: see the listing below.
Answer as the number alone; pIC50 is minus log10 of concentration in mol/L.

N#Cc1cc(-n2cccn2)nc2c1nc(-c1cccnc1N)n2-c1ccc2c(c1)CC[C@@H]2NC(=O)c1ccc(C(F)F)nc1 [Compound 123]: 6.94
Nc1ncccc1-c1nc2ccc(-n3cccn3)nc2n1-c1ccc2c(c1)CC[C@@H]2NC1CCN(c2ccccn2)C1 (stereo partly shown) [Compound 388]: 6.17
Nc1ncccc1-c1nc2ccc(-n3ccc(F)n3)nc2n1-c1ccc2c(c1)CC[C@@H]2NC(=O)c1ccc(F)c(F)c1 [Compound 347]: 6.08
Nc1ncccc1-c1nc2ccc(-n3cccn3)nc2n1-c1ccc2c(c1)CC[C@@H]2NC(=O)c1cnc(C(F)F)c(F)c1 [Compound 62]: 7.23
Nc1ncccc1-c1nc2ccc(-n3cccn3)nc2n1-c1ccc2c(c1)CC[C@@H]2n1cnnc1 [Compound 248]: 6.97
Nc1ncccc1-c1nc2ccc(-n3cccn3)nc2n1-c1ccc2c(c1)CC[C@@H]2NC(=O)c1ccnc(F)c1 [Compound 295]: 7.09
Nc1ncccc1-c1nc2ccc(-n3cccn3)nc2n1-c1ccc2c(c1)CC[C@@H]2n1ccc(=O)cc1 [Compound 83]: 6.06
COc1ccc(C(=O)N[C@H]2CCc3cc(-n4c(-c5cccnc5N)nc5ccc(-n6cccn6)nc54)ccc32)cc1F [Compound 241]: 7.80
Cn1ccc(N2CCC(N[C@H]3CCc4cc(-n5c(-c6cccnc6N)nc6ccc(-n7cccn7)nc65)ccc43)CC2)n1 [Compound 276]: 5.92
Nc1ncc(C(=O)N[C@H]2CCc3cc(-n4c(-c5cccnc5N)nc5ccc(-n6cccn6)nc54)ccc32)cc1F [Compound 298]: 7.29

Fill in pIC50 for record COc1cc(C(=O)N[C@H]2CCc3cc(-n4c(-c5cccnc5N)nc5ccc(-n6cccn6)nc54)ccc32)cc(OC)n1 [Compound 283]
8.54

Fill in pIC50 for record Nc1ncccc1-c1nc2ccc(-n3cccn3)nc2n1-c1ccc2c(c1)CC[C@@H]2NC(=O)c1ccccc1 [Compound 43]
6.86
